- Read-out: Alpha-fetoprotein (AFP) gene, AFP (gene 174)
- experimentSummary: LTEA_HepaRG_AFP: Life Technologies and Expression Analysis (LTEA) Assay for Alpha-fetoprotein (AFP) gene using HepaRG (AID 2283472)
- testContext: mRNA level, 48 h; actives raise or lower the signal
Calls of active or inactive are those of the source. The calls were made as follows: active = hit-call score of the fitted dose curve at least 0.9, where 1 is the maximum; inactive = score below 0.9.
Possible outcomes: true (1) = active, false (0) = inactive

INSERT INTO results (compound, assignedcategory) VALUES
  ('Clc1nc(Cl)c(Cl)c(Cl)c1Cl', 'false (0)'),
  ('O=C(CCCCCCCCc1cccnc1)N1CCC(C=C(c2ccccc2)c2ccccc2)CC1', 'true (1)'),
  ('CC(C)CCCCCCCOC(=O)CCCCC(=O)OCCCCCCCC(C)C', 'false (0)'),
  ('CCNc1ccccc1', 'false (0)'),
  ('CC1(C)C(=O)N(Br)C(=O)N1Br', 'false (0)'),
  ('O=c1[nH]c2ccc(S(=O)CCN3CCC(Cc4ccc(F)cc4)CC3)cc2o1 (stereo unspecified)', 'true (1)');
